# Test system: OVCAR-8 ovarian
# Experiment: NCI-60 one-dose screen, 48 h (100 = growth as untreated, 0 = no growth, -100 = all killed)
# Measurement Parameters: 10 µM unless noted
This is part of a sample that, as a whole, favours compounds with a hit. Of some 83,000 tested, about 20% had one in any assay. The source made the active and inactive calls. Rule for the calls: active = growth percent below 10; inactive = the rest.
Measured Endpoint: growth

// query For the molecule Cc1nn(-c2ccc([N+](=O)[O-])cc2)c2ncnc(NCCc3ccccc3)c12 , what growth is on record?
// result 98.4% (inactive)

// query Quick one: growth of CCN(CC)c1ccc(C(=N)c2ccc(N(CC)CC)cc2)cc1 ?
// result -8.61% (active)

// query May I ask what growth has been recorded for O=C1Nc2ccc(Cl)cc2C12Nc1cc(Cl)ccc1S2 (stereo not drawn) ?
// result 99.2% (inactive)

// query Fill blank: measured growth of the molecule Cc1[nH]c2ccc(F)cc2c1CCNC(=O)C1CCN(C(=O)c2ccccc2)CC1 is ____.
// result 93.3% [25 µM] (inactive)

// query For the molecule CCOC(=O)c1ccc2c(c1)nc(-c1ccc(OCc3ccccc3)c(OC)c1)n2-c1cc(C(C)(C)C)[nH]n1 , what growth is on record?
// result 99.7% (inactive)

// query Please report the recorded growth for COc1ccc(/C=C2\Oc3cc(OCCCN4CCCC4)ccc3C2=O)c(OC)c1 .
// result 80% (inactive)

// query growth lookup needed for CCn1c2ccccc2c2cc(NC(=O)Nc3ccc([N+](=O)[O-])cc3C)ccc21 , thanks.
// result 49.9% (inactive)

// query Recorded growth of COC(=O)C(Sc1ccc(Cl)cc1)C1SC(=S)N(Cc2ccccc2)C1=O (stereo not drawn) , please.
// result 101% (inactive)

* * *

Kindly state growth for each of the entries shown.
# Test system: BT-549 breast
# Experiment: NCI-60 one-dose screen, 48 h (100 = growth as untreated, 0 = no growth, -100 = all killed)
# Measurement Parameters: 10 µM unless noted
The panel holds about 83,000 compounds, 20% with a hit somewhere; the sample as a whole holds those more often.
Please respond with the number in % and leave the unit unwritten.

// query Query growth on BT-549 breast for COC(OC)c1ccccc1
// result 92.4

// query Observed growth on BT-549 breast for COc1ccc(-n2c(=O)sc3c(Cl)nc(C)nc32)c(OC)c1 , please.
// result 91.6

// query Form field - read-out: growth; system: BT-549 breast; submitted item: CCOC(=O)c1cn2c3c(cccc3c1=O)C(=O)/C(=C/c1cccc(Cl)c1Cl)C2
// result 91.6

// query # returns recorded growth (system: BT-549 breast) for CNC(=S)NNC(=O)C1CC1
// result 92.1

* * *

# Tested on: UACC-62 melanoma
# Experiment: NCI-60 one-dose screen, 48 h
# Measurement Parameters: 10 µM unless noted
The panel holds about 83,000 compounds, 20% with a hit somewhere; the sample as a whole holds those more often. The source made the active and inactive calls. Rule for the calls: active = growth percent below 10; inactive = the rest.
Response enum: label 1 for active, label 0 for inactive

// query Returns: the outcome recorded for CC(C)(C)n1cc(-c2ccnc(NCCCNS(=O)(=O)c3ccc(C(F)(F)F)cc3)c2)c(-c2cccc(O)c2)n1 in this assay.
// result label 0

// query Recorded test outcome, item COc1ccc(C2=C(c3cc(OC)c(OC)c(OC)c3)C(=O)CC2)cc1
// result label 0

// query // return assay outcome for CN(C)CCCC(C#N)c1ccccc1 (configuration not stated)
// result label 0

// query For CN(C[C@H]1Cc2c(cccc2N2CCN(c3ncccn3)CC2)CN1)[C@H]1CCCc2cccnc21 , which call appears in the assay record?
// result label 0

// query Record lookup: outcome of this test for CCN(CC)CCOc1ccc(/C(=C(/C)c2ccccc2)c2ccc(OC(C)=O)cc2)cc1 ?
// result label 0

// query What classification did Nc1cccc(-c2nc3sccn3c2-c2ccnc(NCCCNS(=O)(=O)c3cccc4ccccc34)n2)c1 end up with in this test?
// result label 0

// query Record lookup: outcome of this test for CN1CCN(Cc2ccc(NC(=O)c3cncc(C#Cc4cnc(N)c5cnccc45)c3)cc2C(F)(F)F)CC1 ?
// result label 1

// query Write down the call the test reported for this molecule. Item: OCCCCCCNc1ncnc2cc(Cl)ccc12
// result label 0

// query GET /call?item= O=[N+]([O-])c1cc(S(=O)(=O)Oc2ccccc2)ccc1Cl returns the recorded outcome of this test.
// result label 0

// query Could you please tell me the result logged for COc1cc(-c2nc(N=Nc3c(O)[nH]c4ccc(Br)cc34)[nH]c(=O)c2C#N)cc(OC)c1OC in this assay?
// result label 0

// query Test call for this molecule, please: CCCCCCCCCCCCCCCCNC(=O)OC(C)C
// result label 0

// query Status in this test for CCN(CC)CCCNc1nccc2ccc(Cl)cc12 ?
// result label 0

// query Which outcome was entered for the molecule Cn1c2ccc(Br)cc2c2c3c(c4c5ccccc5[nH]c4c21)C(=O)N(O)C3=O in this test?
// result label 1

// query What outcome does the record of this test show for Cc1cc(N/N=C/c2nc(-c3ccc(Br)cc3)oc2C)c2cc(Br)ccc2n1 ?
// result label 0

// query Outcome? CCOC(=O)CN1/C(=N/c2sc3c(c2C(=O)OCC)CCN(C(=O)OCC)C3)SC(=O)/C1=C\C(=O)OC
// result label 0

// query Give the logged outcome of this assay for the following molecule: O=C1NN(C(=O)c2ccc(Cl)cc2)C(c2ccccc2)=N/C1=C\c1ccc(F)cc1
// result label 0

// query Look up the recorded call for Cc1ccc(-c2nc(C#N)c(S(=O)(=O)n3nc(-c4ccccc4)cc3N)o2)cc1 in this test.
// result label 0

// query Assay outcome for COc1ccc(-n2c(=S)sc3c(Cl)nc(C)nc32)c(OC)c1 : what was it?
// result label 0

// query Could you kindly confirm the outcome this assay logged for Cc1cc(C2(c3cc(C)c(O)cc3C)OS(=O)(=O)c3ccccc32)c(C)cc1O ?
// result label 0

// query Test call, this molecule: CN1CCN(Cc2ccc(NC(=O)c3nc4ccc5[nH]ncc5c4c4c3CCC4)cc2C(F)(F)F)CC1
// result label 1

// query How was O=[N+]([O-])c1cc(Cl)c2[nH]c3c(Cl)cc([N+](=O)[O-])cc3c2c1 classified in this test?
// result label 1

// query Which outcome was entered for the molecule COc1ccc(C2C(C#N)=C(N)Oc3c2ccc2ccccc32)cc1 (configuration not stated) in this test?
// result label 0

* * *

# Test system: SK-MEL-2 melanoma
# Experiment: NCI-60 one-dose screen, 48 h
# Measurement Parameters: 10 µM unless noted
This is part of a sample that, as a whole, favours compounds with a hit. Of some 83,000 tested, about 20% had one in any assay. Activity calls are given as the source filed them. How the source made its calls: active means growth percent below 10; inactive means the rest.
Answer with one of the outcomes given here: 1 (active), -1 (inactive)

// query State the result this test recorded for COc1ccc(-n2c(=S)sc3c(Cl)nc(C)nc32)c(OC)c1 .
// result -1

// query Any idea what this test logged for Cc1[nH]c2ccc(F)cc2c1CCNC(=O)C1CCN(C(=O)c2ccccc2)C1 (configuration not stated) ?
// result -1

// query Per the assay record, what outcome was assigned to Nc1ccc(C(=O)CSc2nc3ccccc3[nH]2)cc1 ?
// result -1

// query Tell me the recorded outcome of this test for O=C1C(Cl)=C(Nc2ccccn2)C(=O)c2ccccc21 .
// result -1

// query Could you check what this test reported for Fc1ccc(Nc2ncnc3ccc(-c4cnc5[nH]ccc5c4)cc23)cc1Cl ?
// result -1

// query Recorded test outcome, item CCOC(=O)NNC(=S)Nc1ccccc1
// result -1

// query In this assay, the call recorded for COc1cc2c(cc1OCCCCCn1c3ccccc3c3ccccc31)N=C[C@@H]1CCCN1C2=O was what?
// result 1

// query Check the results log: what was the call for CCOC(=O)C1CCNC(=O)C1=O (configuration not stated) ?
// result -1

// query Each compound tested received a call. Report the one for COc1ccccc1CNCCCN1C(=O)c2ccc3c4c(ccc(c24)C1=O)C(=O)N(CCCNCCCCNCCCN)C3=O .
// result 1

// query Returns: the outcome recorded for NC1N=C(SCC(=O)N2CCN(c3cc4c(cc3F)c(=O)c(C(=O)O)cn4C3CC3)CC2)NC(=O)/C1=C/c1ccc(Cl)cc1 (configuration not stated) in this assay.
// result -1

// query Give the logged outcome of this assay for the following compound: O=[N+]([O-])c1ccc(-c2cn(-c3ccccc3)c(-c3ccccc3)n2)cc1
// result -1

// query # fetch the recorded call for C/C=C(\C)C(C(=O)NC1CCCCC1)N(C(=O)C1CCc2cc(F)ccc2O1)c1ccc(Cl)cc1 (configuration not stated) here
// result -1

// query Dear colleague, could you share the recorded outcome for O=C(O)C1CCCN1 (configuration not stated) when you have a moment?
// result -1

// query What did this assay record as the result for ClC(Cl)c1nc(-c2ccccc2)nc2cc(-c3ccccc3)nn12 ?
// result -1

// query # lookup: test call for CN1C(=O)N(C)C2C1NN=c1s/c(=C\C=C\c3ccccc3)c(=O)n12 (configuration not stated)
// result -1

// query Per the records of this test, what outcome belongs to Cc1ccc(-c2nc(C#N)c(S(=O)(=O)n3nc(-c4ccccc4)cc3N)o2)cc1 ?
// result -1

// query Could you check what this test reported for O=C1/C(=C/c2ccc(Cl)cc2)CN(C(=O)CCN2CCC(=NO)CC2)C/C1=C\c1ccc(Cl)cc1 ?
// result 1

// query Recorded test call requested for CN1CCN(Cc2ccc(NC(=O)c3nc4ccc5[nH]ncc5c4c4c3CCC4)cc2C(F)(F)F)CC1
// result -1

// query // outcome(item) with item = O=C1/C(=C/c2ccc(Cl)cc2)CN(Cc2cn(CCNc3ccnc4cc(Cl)ccc34)nn2)C/C1=C\c1ccc(Cl)cc1
// result 1

// query Please state the recorded outcome for this compound: CCN1CCN(c2nc(NNC(=O)c3ccccc3)nc(N3CCN(C(c4ccccc4)c4ccccc4)CC3)n2)CC1
// result -1

// query Tell me the assay call for COc1cc(C2C3=C(COC3=O)Nc3cc4c(cc32)OCO4)cc2c1OCO2 (configuration not stated) please.
// result -1

// query Test call, this compound: COc1ccc(/C=C2\Oc3cc(OCCCN4CCCC4)ccc3C2=O)cc1
// result -1
